Listed next: entries and their corresponding pIC50.
target: human, KCNT1 (Homo sapiens (Human), UniProt Q5JUK3); test: FLIPR Tl/K Flux Assay; conditions: HEK293 cells stably expressing human KCNT1; Tl+ flux stimulated with EC80 of agonist Loxapine
Sequence (Q5JUK3 whole entry): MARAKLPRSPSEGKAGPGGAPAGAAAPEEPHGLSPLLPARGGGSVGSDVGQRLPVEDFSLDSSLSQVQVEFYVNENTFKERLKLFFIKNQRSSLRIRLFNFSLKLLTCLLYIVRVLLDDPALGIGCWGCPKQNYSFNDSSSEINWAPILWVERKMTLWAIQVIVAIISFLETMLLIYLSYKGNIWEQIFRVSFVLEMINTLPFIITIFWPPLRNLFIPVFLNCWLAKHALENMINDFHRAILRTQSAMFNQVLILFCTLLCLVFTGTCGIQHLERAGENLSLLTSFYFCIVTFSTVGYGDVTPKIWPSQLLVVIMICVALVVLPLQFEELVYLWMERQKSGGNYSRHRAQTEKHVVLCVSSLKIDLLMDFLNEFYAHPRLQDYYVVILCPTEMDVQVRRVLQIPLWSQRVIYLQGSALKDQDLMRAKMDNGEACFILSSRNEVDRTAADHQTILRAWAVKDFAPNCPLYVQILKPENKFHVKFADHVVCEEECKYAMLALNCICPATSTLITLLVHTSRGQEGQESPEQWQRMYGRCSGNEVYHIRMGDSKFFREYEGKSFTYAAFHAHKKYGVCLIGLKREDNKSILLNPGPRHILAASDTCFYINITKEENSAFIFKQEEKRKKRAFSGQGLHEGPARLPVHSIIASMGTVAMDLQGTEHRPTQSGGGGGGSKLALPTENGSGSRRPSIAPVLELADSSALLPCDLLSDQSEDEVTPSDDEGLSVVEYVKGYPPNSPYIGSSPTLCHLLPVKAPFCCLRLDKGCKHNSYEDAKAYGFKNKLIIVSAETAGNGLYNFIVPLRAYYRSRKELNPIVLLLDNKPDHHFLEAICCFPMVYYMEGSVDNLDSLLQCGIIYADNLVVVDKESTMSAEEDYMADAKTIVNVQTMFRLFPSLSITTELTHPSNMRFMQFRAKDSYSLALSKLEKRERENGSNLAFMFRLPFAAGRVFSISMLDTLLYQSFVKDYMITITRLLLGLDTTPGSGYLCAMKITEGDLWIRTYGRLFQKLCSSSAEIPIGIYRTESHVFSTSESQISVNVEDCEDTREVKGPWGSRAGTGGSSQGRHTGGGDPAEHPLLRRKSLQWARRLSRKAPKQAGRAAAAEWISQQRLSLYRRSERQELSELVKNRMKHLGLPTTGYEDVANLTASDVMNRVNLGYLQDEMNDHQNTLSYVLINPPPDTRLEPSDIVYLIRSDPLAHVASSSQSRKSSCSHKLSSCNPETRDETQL
pIC50: −log10 of the molar value.

In: Look up and report measured pIC50 for this entry: O=C(N[C@H]1CCCc2oc(-c3ccnc(C4CC4)c3)nc21)c1cn(C(F)(F)F)nc1C(F)(F)F [Compound I-519a]
Out: > 6.60

In: Look up and report measured pIC50 for this entry: Cn1nc(C2CC2)cc1C(=O)N[C@@H]1CCCCc2nn(-c3ccnc(C(F)(F)F)c3)cc21 [Compound I-369b]
Out: < 6.00

Next:
In: Look up and report measured pIC50 for this entry: O=C(N[C@@H]1CCc2nn(-c3ccnc(C(F)(F)F)c3)cc21)c1ccccc1 [Compound I-91b]
Out: < 6.00

In: Look up and report measured pIC50 for this entry: N#CC12CC(C(=O)N[C@H]3CCn4nc(-c5ccnc(C(F)(F)F)c5)cc43)(C1)C2 [Compound I-491a]
Out: 6.00 to 6.30

The measurements presented in this section are drawn from patent US20250313548A1.
